Test system: T. gondii strain 2F
procedure-details: In vitro inhibition of T. gondii (growth inhibition assay)
Assay type: cell-based, Toxoplasma gondii
particulars: Table 1; T. gondii in human foreskin fibroblasts
parameter: ID50 (µg/mL)
Write the number in µg/mL without appending the unit.

For orientation, consider the following solved cases.
1) COc1cc(Cc2cnc(N)nc2N)cc(OC)c1OC [Trimethoprim, reference compound]	5.2
2) CC1CCC2C(C)C(CCCOC(=O)c3ccccc3)OC3OC4(C)CCC1C32OO4 (stereo not shown) [Compound 2b]	0.6
3) CO[C@H]1O[C@@H]2O[C@@]3(C)CC[C@H]4[C@H](C)CC[C@@H]([C@H]1C)[C@@]24OO3 [Artemether, reference compound]	0.2

Prompt: Which ID50 is reported for this compound? CC1CCC2C(C)C(CCCOC(=O)c3ccccc3Br)OC3OC4(C)CCC1C32OO4 (stereo not shown) [Compound 2c]
Completion: 0.6

====

Tested on: T. gondii tachyzoites
procedure-details: Replication inhibition assay
Format: cell-based, Toxoplasma gondii
particulars: 10 μg/ml added 2 hours after infection of HFF cells, 26 hours; FIG. 2
parameter: inhibition of T. gondii replication

1) CC1=C(c2nccs2)OC2O[C@]3(C)CC[C@H]4[C@H](C)CC[C@@H]1[C@@]24O3 (stereo partly drawn) [Deoxy-3a, deoxy-DART-thiaz]	ineffective
2) C[C@@H]1CC[C@H]2[C@@H](C)C(=O)O[C@@H]3O[C@@]4(C)CC[C@@H]1[C@]32OO4 [Artemisinin]	ineffective

====

Test system: T. gondii strain 2F
procedure-details: In vitro inhibition of T. gondii (growth inhibition assay)
Assay type: cell-based, Toxoplasma gondii
particulars: Toxoplasma gondii, Fibroblast; Table 1; T. gondii in human foreskin fibroblasts; read-out: ID50 (the source's name)
parameter: IC50 (µM)
Write the number in µM without appending the unit.

For orientation, consider the following solved cases.
1. C[C@@H]1CC[C@H]2[C@@H](C)C(=O)O[C@@H]3O[C@@]4(C)CC[C@@H]1[C@]32OO4	8
2. C[C@H]1[C@@H](CCCO)O[C@@H]2O[C@]3(C)CC[C@H]4[C@H](C)CC[C@@H]1[C@@]24OO3	8.3
3. C[C@H]1[C@@H](CCCO)O[C@@H]2O[C@]3(C)CC[C@H]4[C@H](C)CC[C@@H]1[C@@]24O3	560

Prompt: Which IC50 is reported for this compound? CO[C@H]1O[C@@H]2O[C@@]3(C)CC[C@H]4[C@H](C)CC[C@@H]([C@H]1C)[C@@]24OO3 [Artemether, reference compound]
Completion: 0.7

====

System: T. gondii strain 2F
procedure-details: In vitro inhibition of T. gondii (growth inhibition assay)
Type: cell-based, Toxoplasma gondii
particulars: Table 1; T. gondii in human foreskin fibroblasts
parameter: ID50 (µg/mL)
Write the number in µg/mL without appending the unit.

For orientation, consider the following solved cases.
1. C[C@H]1[C@@H](CCCO)O[C@@H]2O[C@]3(C)CC[C@H]4[C@H](C)CC[C@@H]1[C@@]24O3 [Deoxy-2a, Deoxy-ART-PrOH]	173
2. C[C@H]1[C@@H](CCCO)O[C@@H]2O[C@]3(C)CC[C@H]4[C@H](C)CC[C@@H]1[C@@]24OO3 [Compound 2a, ART-PrOH]	2.7
3. C[C@@H]1CC[C@H]2[C@@H](C)C(=O)O[C@@H]3O[C@@]4(C)CC[C@@H]1[C@]32OO4 [Artemisinin]	2.3

Prompt: Which ID50 is reported for this compound? CC(C)=CCCC(C)CCOCCCC1OC2OC3(C)CCC4C(C)CCC(C1C)C24OO3 (stereo not shown) [Compound 2d]
Completion: 0.5
